MEASUREMENT_PROTOCOL: Inhibition of human platelet aggregation
pIC50: −log10 of the molar value.
Please mark yes (1) if the recorded pIC50 is equal to or greater than 6, and no (0) if it falls below.

See these solved cases before continuing.
{"RECORD_SMILES": "CCN(CCC(=O)N[C@@H](CC(=O)O)C(=O)N[C@H](C(=O)O)C(C)C)C(=O)C=Cc1ccc(N=C(N)N)cc1", "CLASS_NAME": "yes (1)"}
{"RECORD_SMILES": "CC(C)[C@H](NC(=O)[C@H](CC(=O)O)NC(=O)[C@H]1CCCN(C(=O)C=Cc2ccc(N=C(N)N)cc2)C1)C(=O)O", "CLASS_NAME": "yes (1)"}
{"RECORD_SMILES": "CC(C)[C@H](NC(=O)[C@H](CC(=O)O)NC(=O)CNC(=O)C=Cc1ccc(N=C(N)N)cc1)C(=O)O", "CLASS_NAME": "no (0)"}
{"RECORD_SMILES": "CC(C)[C@H](NC(=O)[C@H](CC(=O)O)NC(=O)C[C@H]1CCCN1C(=O)C=Cc1ccc(N=C(N)N)cc1)C(=O)O", "CLASS_NAME": "no (0)"}
{"RECORD_SMILES": "CC(C)[C@H](NC(=O)[C@H](CC(=O)O)NC(=O)CCN(C)C(=O)C=Cc1ccc(N=C(N)N)cc1)C(=O)O", "CLASS_NAME": "yes (1)"}

# check: pIC50 of CC(C)[C@H](NC(=O)[C@H](CC(=O)O)NC(=O)[C@@H]1CCN(C(=O)C=Cc2ccc(N=C(N)N)cc2)C1)C(=O)O is greater than or equal to 6
yes (1)

Confirm if pIC50 reported for the molecule CC(C)[C@H](NC(=O)[C@H](CC(=O)O)NC(=O)C[C@@H]1CCCN1C(=O)C=Cc1ccc(N=C(N)N)cc1)C(=O)O is 6 or above.
yes (1)

Tell me whether pIC50 is at least 6 here: CC(C)[C@H](NC(=O)[C@H](CC(=O)O)NC(=O)C[C@@H]1CCCCN1C(=O)C=Cc1ccc(N=C(N)N)cc1)C(=O)O
no (0)

Threshold query (pIC50 >= 6) on CC(C)[C@H](NC(=O)[C@H](CC(=O)O)NC(=O)[C@H]1CCN(C(=O)C=Cc2ccc(N=C(N)N)cc2)C1)C(=O)O
no (0)

Identify whether the reported pIC50 of the following molecule is 6 or greater: CC(C)[C@H](NC(=O)[C@H](CC(=O)O)NC(=O)[C@@H]1CCCN(C(=O)C=Cc2ccc(N=C(N)N)cc2)C1)C(=O)O
yes (1)

Tell me whether pIC50 is at least 6 here: CC(C)[C@H](NC(=O)[C@H](CC(=O)O)NC(=O)CCNC(=O)C=Cc1ccc(N=C(N)N)cc1)C(=O)O
no (0)
